# Measurement Protocol: growth suppression of PTEN-deleted HCT116, pilot screen, cell-based, HCT116 clonal line, CellTiter-Glo (AID 824);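 further: 0% = 20 µM Hyamine control and 100% = vehicle cell control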
# Measurement Parameters: 60 h, at 10 µM, stronger effect = lower value
Records with an inconclusive call do not appear.
Quantity Name: viability (%)
Express your answer in %, writing the number without its unit.

// below: answered compounds
CCOc1ccc2nc(N3CCC(C(=O)Nc4nnc(CC)s4)CC3)sc2c1 | 95.1
CC(C)N(C(=O)COc1ccc(Br)cc1Cl)C(C)C | 83.1
Cc1noc(/C=C/N(C)C)c1S(=O)(=O)N1CCCC(C(=O)NCc2ccco2)C1 (configuration not stated) | 92.1

Qu. I would be grateful if you could share the reported viability for O=C(O)c1cc2c(s1)-c1ccccc1OC2 .
Ans. 98.7

Qu. Requested field: viability. Item: COc1ccccc1C(=O)C(O)c1ccccc1OC (configuration not stated)
Ans. 94.4

Qu. Fill in the blank: the reported viability of O=C(c1ccco1)c1n[nH]nc1-c1ccccc1 is ____.
Ans. 102

----------
# Measurement Protocol: reversal of MRP1-mediated doxorubicin resistance, pilot screen, H69AR cells, doxorubicin co-treatment (AID 601)
# Measurement Parameters: H69AR cells + 2 uM doxorubicin, CellTiter-Glo, 72 h; measured here: viability with 2 uM doxorubicin; at 10 µM; stronger effect = lower value
Quantity Name: viability (%)
Numbers only here, please. The scale is %.

Cc1cc(C)n(-c2nc3nonc3nc2-n2nc(C)cc2C)n1 | 90.3

Qu. So what's the measured viability for this one? Cc1cc(C(=O)CSc2nnc(-c3ccco3)o2)c(C)n1CC1COc2ccccc2O1 (centres undefined)
Ans. 98.8

Qu. Reported viability for Nc1nnnn1/N=C/c1ccccn1 : what is it?
Ans. 86.2

Qu. Recorded viability of O=C(CCCN1C(=O)c2ccccc2C1=O)Oc1ccc(F)cc1 , please.
Ans. 85.2

Qu. If you can, please state the reported viability value of CCC(C)NC(=O)C1(C)CCC(=O)N1CCc1ccc(OC)c(OC)c1 (centres undefined) .
Ans. 94.2

Qu. I have this compound here, Cc1cc(Br)ccc1NC(=O)CNC(=O)CSc1n[nH]c(N)n1 , and I need its recorded viability.
Ans. 87.3

Qu. Name the recorded viability for Nc1nnc(-c2cccc(Cl)c2Cl)c(N)n1 .
Ans. 93.4

----------
# Measurement Protocol: Restrictive medium S. cerevisiae growth inhibition, OD615, pilot screen of yeast lifespan reduction project, restrictive growth control (AID 706);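 further: modified DeaD lifespan yeast strain shifted to restrictive glucose medium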
# Measurement Parameters: OD615, 48 h, at 10 µM, stronger effect = higher value
Quantity Name: growth inhibition (%)
Give a bare numeral; the unit % is implied.

Here are 3 compounds together with their reported answers.
C=CCNc1oc(Cc2cccc3ccccc23)nc1C#N | -9.46
Fc1cccc(Cl)c1CSc1ncn[nH]1 | 10.7
CCOC(=O)N1CCN(C(=O)CCc2nc3sc4c(c3c(=O)[nH]2)CCCC4)CC1 | 2.66

Qu. For the compound shown here, CC(C)N(CCc1ccncc1)C(=O)Nc1ccc(Cl)c(Cl)c1 , give the reported growth inhibition.
Ans. -1.79

Qu. What value of growth inhibition has been reported for the following compound? N#C/C(=C1\CCCN1)c1ccc2ccccc2n1
Ans. 3.25

Qu. State the recorded growth inhibition for this entry: COc1ccc(C2N(c3ccc(Cl)cc3)C(=O)C3CCCN32)cc1 (stereo unspecified)
Ans. 0.035

Qu. Given the entry Cc1c(NC(=O)NCCN2C(=O)C3C4C=CC(C4)C3C2=O)c(=O)n(-c2ccccc2)n1C (stereo unspecified) , report its measured growth inhibition.
Ans. -8.71

Qu. For the compound CCOC(=O)c1sc(NC(C)=O)cc1C , what growth inhibition is on record?
Ans. 4.88

Qu. Quick one: growth inhibition of Cc1ccc(S(=O)(=O)N2CCN(C(=O)CCC(=O)N3CCc4ccccc43)CC2)cc1 ?
Ans. -5.78

Qu. Can you look up the measured growth inhibition of CN(C)/C=N/c1c(C#N)cnn1-c1nc2ccccc2s1 for me?
Ans. 6.79

Qu. Given the entry CCOc1cc(CNC(=O)CN2C(=O)c3ccccc3S2(=O)=O)ccc1OC , report its measured growth inhibition.
Ans. -10.7
